# System: COLO 205 colon
# Test method notes: NCI-60 one-dose screen, 48 h (100 = growth as untreated, 0 = no growth, -100 = all killed)
# Experimental context: 10 µM unless noted
The panel holds about 83,000 compounds, 20% with a hit somewhere; the sample as a whole holds those more often.

{"columns": ["Compound", "Assay system", "Display unit", "growth"],
 "data": [
  ["CNS(=O)(=O)Nc1nccc(Cc2c(C)c3ccc(Oc4ncccn4)cc3oc2=O)c1F", "COLO 205 colon", "%", 8.97],
  ["Cc1cc(Nc2ncnc3ccc(NC4=NC(C)(C)CO4)cc23)ccc1Oc1ccn2ncnc2c1", "COLO 205 colon", "%", -60.7],
  ["Cn1ncc(Cl)c1-c1cc(C(=O)N[C@H](CN)Cc2cccc(F)c2)sc1Cl", "COLO 205 colon", "%", -73.9],
  ["O=CC(OC(=O)c1ccccc1)C(OC(=O)c1ccccc1)C(COC(c1ccccc1)(c1ccccc1)c1ccccc1)OC(=O)c1ccccc1 (stereo not given)", "COLO 205 colon", "%", 57.2],
  ["CC(N)C(Cc1ccccc1)c1ccc(Cl)cc1 (stereo not given)", "COLO 205 colon", "%", 84.4]
]}

----------
# Test system: SK-OV-3 ovarian
# Test method notes: NCI-60 one-dose screen, 48 h
# Experimental context: 10 µM unless noted
About 83,000 compounds went through this panel and 20% of them were active in at least one assay; those are over-represented in the sample as a whole. Calls of active or inactive are those of the source. Rule for the calls: active = growth percent below 10; inactive = the rest.
Outcomes: active, inactive

{"columns": ["Compound", "Assay system", "Assigned class"],
 "data": [
  ["O=C(CNc1nnc(-c2ccc(Cl)cc2)o1)Nc1ccc(-c2nc3ccccc3s2)cc1", "SK-OV-3 ovarian", "inactive"],
  ["CCCc1cc2cc(-n3nc(C)c4c3CC(C)(C)CC4=O)cc(NC3CCC(O)CC3)c2c(=O)[nH]1 (centres undefined)", "SK-OV-3 ovarian", "active"],
  ["CCOC(=O)C1=C(C)N=C2Sc3cc(OC(F)(F)F)ccc3N2[C@H]1c1ccccn1", "SK-OV-3 ovarian", "inactive"],
  ["CNC(=O)c1cccc2cc(Oc3ccnc4cc(OCC5(N)CC5)c(OC)cc34)ccc12", "SK-OV-3 ovarian", "inactive"],
  ["CCc1ccc(C2=C(O)C(=O)C(c3ccc(CC)cc3)=C(O)C2=O)cc1", "SK-OV-3 ovarian", "active"],
  ["CC(=O)O[C@]1(C)C[C@H](O)[C@]2(O)C=CO[C@H](O[C@@H]3O[C@H](CO)[C@@H](O)[C@H](O)[C@H]3O)[C@@H]21", "SK-OV-3 ovarian", "inactive"],
  ["CCCCCCCC(=O)SCC/C=C/[C@@H]1CC(=O)NCc2cccc(n2)C2=N[C@@](C)(CS2)C(=O)N[C@@H](C(C)C)C(=O)O1", "SK-OV-3 ovarian", "active"],
  ["CCN1CCN(c2nc(C)cc(N(CCNc3ccnc4cc(Cl)ccc34)Cc3ccc4c(c3)OCO4)n2)CC1", "SK-OV-3 ovarian", "inactive"],
  ["C=CC(=O)N(C)[C@H]1C[C@H]2OC(C)(C1OC)n1c3ccccc3c3c4c(c5c6ccccc6n2c5c31)C(=O)NC4 (some centres undefined)", "SK-OV-3 ovarian", "active"]
]}

----------
# Test system: SK-OV-3 ovarian
# Test method notes: NCI-60 one-dose screen, 48 h
# Experimental context: 10 µM unless noted
About 83,000 compounds went through this panel and 20% of them were active in at least one assay; those are over-represented in the sample as a whole. Activity calls are given as the source filed them. Rule for the calls: active = growth percent below 10; inactive = the rest.
Outcomes: active, inactive

{"columns": ["Molecule", "Assigned class"],
 "data": [
  ["COc1cc2c(cc1OCCCCN1CCN(CC(=O)Nc3ccc(Cl)cc3C(=O)c3ccccc3Cl)CC1)N=CC1CCCN1C2=O (stereo not drawn)", "active"],
  ["CCc1cc2c(c3ccc(C(=O)CBr)cc13)CCCC2", "inactive"],
  ["CO[C@@H](C(=O)N1Cc2[nH]nc(NC(=O)c3ccc(N4CCN(C)CC4)cc3)c2C1)c1ccccc1", "active"],
  ["CC(C)Nc1cc(-c2c[nH]c(C(=O)N[C@H](CO)c3cccc(Cl)c3)c2)c(Cl)cn1", "inactive"],
  ["O=C(NCCO)Nc1ccc(-c2nc(N3CCOCC3)c3cccn3n2)cc1", "active"],
  ["C=CCN1C(=O)c2cccc3c(-c4ccc5c(c4)ncn5C4CCCCC4)ccc(c23)C1=O", "inactive"],
  ["Cn1cc(-c2cnn3c(N)c(Br)c([C@@H]4CCCNC4)nc23)cn1", "inactive"],
  ["ClCc1ccc(-c2ccc(Cn3cnc4c(Cl)nc(Cl)nc43)cc2)cc1", "inactive"],
  ["C[N+](C)(CCOC(c1ccccc1)c1ccccc1)CC(=O)OCc1ccccc1", "inactive"],
  ["Cc1nn(-c2nc3ccccc3[nH]2)c2c1C(c1ccc(O)cc1)CC(=O)N2 (stereo not drawn)", "inactive"],
  ["CC[C@H](CO)Nc1nc(NCc2ccccc2)c2ncn(C(C)C)c2n1", "inactive"],
  ["NC1=Nc2cc(OCCCN3Cc4ccccc4C3)c(OCC3CC3)cc2C12CCCC2", "inactive"],
  ["CN(C[C@@H]1COCCO1)S(=O)(=O)Nc1ccc2ccc3ncc(-c4cnn(C)c4)cc3c(=O)c2c1", "active"],
  ["Clc1ccc2c(NCCCNCc3ccc4c(c3)OCO4)ccnc2c1", "inactive"],
  ["CO[C@H]1C[C@@H]2CC[C@@H](C)[C@@](O)(O2)C(=O)C(=O)N2CCCC[C@H]2C(=O)O[C@H]([C@H](C)C[C@@H]2CC[C@@H](OCCO)[C@H](OC)C2)CC(=O)[C@H](C)/C=C(\\C)[C@@H](O)[C@H](OC)C(=O)[C@H](C)C[C@H](C)\\C=C/C=C/C=C/1C", "inactive"],
  ["C=CC(=O)Nc1cccc(Nc2nc(Nc3ccc(N4CCN(C(C)=O)CC4)cc3OC)ncc2C(F)(F)F)c1", "active"],
  ["Cc1cc(N(CCNc2ccnc3cc(Cl)ccc23)Cc2ccc3c(c2)OCO3)nc(N2CCCC2)n1", "inactive"],
  ["COc1cc2c(c(OC)c1)C1c3ccccc3NC(=O)N1CC2 (stereo not drawn)", "inactive"],
  ["COc1ccc(C2CC(=O)c3c(O)c(OC)c(OC)c(OC)c3O2)c(O)c1 (stereo not drawn)", "inactive"],
  ["CCc1cnn2c(NCc3ccc[n+]([O-])c3)cc(N3CCCC[C@H]3CCO)nc12", "active"],
  ["Cn1cnc2c(F)c(Nc3ccc(Br)cc3Cl)c(C(=O)NOCCO)cc21", "inactive"],
  ["NC(=O)c1c(OCc2c(F)cc(Br)cc2F)nsc1NC(=O)NCCCCN1CCCC1", "inactive"],
  ["N#CCNC(=O)c1ccc(-c2ccnc(Nc3ccc(N4CCOCC4)cc3)n2)cc1", "inactive"]
]}

----------
# System: HCT-15 colon
# Test method notes: NCI-60 one-dose screen, 48 h (100 = growth as untreated, 0 = no growth, -100 = all killed)
# Experimental context: 10 µM unless noted
This is part of a sample that, as a whole, favours compounds with a hit. Of some 83,000 tested, about 20% had one in any assay.
Observed property: growth (%)

{"columns": ["Compound", "Reported measurement"],
 "data": [
  ["N#Cc1c(-c2ccc(C(F)(F)F)cc2)c(F)c(NCCC2CCC(O)C2)n2c1nc1ccccc12 (stereo not drawn)", 49.6],
  ["CC(C)(O)CC(=O)NCCn1ccc2ncnc(Nc3ccc(Oc4cccc(C(F)(F)F)c4)c(Cl)c3)c21", 12.2],
  ["CCc1nc2ccc(Cc3ccc(C(=O)NO)cc3)cc2c(=O)n1CCc1ccccc1", -43.2],
  ["O=C(Nc1cnn2ccc(N3CCC[C@@H]3c3cc(F)ccc3F)nc12)N1CC[C@H](O)C1", 92.6],
  ["O=C1C=CC2(NN=C(c3ccccc3)N2c2ccc(Cl)cc2)c2cccc(O)c21 (stereo not drawn)", 18.7],
  ["CCCCN1CCCC[C@@H]1C(=O)N[C@H](C(=O)N(C)[C@H](CCc1nc(C(=O)N[C@@H](Cc2ccccc2)C[C@H](C)C(=O)OC)cs1)C(C)C)C(C)C", 59.4],
  ["COc1cc2c(c(OC)c1)C1c3ccccc3NC(=O)N1CC2 (stereo not drawn)", 18],
  ["CNC(=O)CN1CCC(Oc2cc3c(Nc4cccc(Cl)c4F)ncnc3cc2OC)CC1", 66.8]
]}

----------
This section presents molecules with their documented growth values.
# Test system: UACC-62 melanoma
# Test method notes: NCI-60 one-dose screen, 48 h (100 = growth as untreated, 0 = no growth, -100 = all killed)
# Experimental context: 10 µM unless noted
# Protocol: Growth inhibition of the UACC-62 human tumor cell line is measured as a screen for anti-cancer activity. Cells are grown in 96 well plates and exposed to the test compound for 48 hours. Compounds are tested at a single concentration, which is 10^-5 M for most compounds. The reported endpoint is percent growth (GI% or GIPRCNT), where numbers from 0 - 100% represent growth inhibition, and numbers from -100% - 0 represent cell death. For example, a value of 40 represents 60% growth inhibition. […]
The panel holds about 83,000 compounds, 20% with a hit somewhere; the sample as a whole holds those more often.

{"columns": ["Molecule", "growth, %"],
 "data": [
  ["O=C(Cc1ccccc1)Nc1nnc(NC2CCN(c3nnc(NC(=O)Cc4ccccc4)s3)CC2)s1", 89],
  ["Cc1cccc(C)c1N1C(c2ccccc2)=NNC12C=CC(=O)c1c(O)cccc12 (configuration not stated)", 24.5],
  ["C=CC(=O)Nc1cccc(Nc2nc(Nc3ccc(N4CCN(C(C)=O)CC4)cc3OC)ncc2C(F)(F)F)c1", 11.1],
  ["N#CC(C#N)=NO", 102],
  ["Cn1c(Nc2ccc(C(F)(F)F)cc2)nc2cc(Oc3ccnc(-c4ncc(C(F)(F)F)[nH]4)c3)ccc21", 8.71],
  ["Cn1ccnc1C(=O)/C=C/c1ccc(CC(=O)Nc2ccc(C(F)(F)F)cc2)cc1", 27.9],
  ["Clc1ccc(C(Cn2ccnc2)OCc2ccsc2Cl)c(Cl)c1 (configuration not stated)", 41.9],
  ["CCN1CCN(c2nc(C)cc(N(CCCNc3ccnc4cc(Cl)ccc34)Cc3ccc4c(c3)OCO4)n2)CC1", -52.9],
  ["C=C1CC[C@@H]2[C@](C)(COC(C)=O)[C@H](OC(C)=O)CC[C@@]2(C)[C@@H]1C/C=C1/C(=O)OC[C@H]1OC(C)=O", 29.7],
  ["CNC(=O)c1ccccc1Nc1nc(Nc2ccc3c(c2OC)CCC[C@H](N2CCN(CCO)CC2)C3)ncc1Cl", -45],
  ["O=C(Nc1nc2cccc(-c3ccc(CN4CCS(=O)(=O)CC4)cc3)n2n1)C1CC1", 87.6],
  ["COC(=O)CC[C@@H](C)[C@H]1CC[C@H]2C3CC[C@@H]4C[C@@H]5CC[C@]4(C)[C@@]3(O5)[C@H](Br)[C@@H](Br)[C@]12C (some centres not stated)", 86.3]
]}
